assay: Excitation and emission wavelengths of BAT imaging agents; assay type: physicochemical
RECORDED ENDPOINT: Excitation λ (nm)
Number only, in nm; omit the unit.

Completed entries (count: 5):
CN(C)c1ccc(/C=C/C=C/C2=CC(/C=C/C=C/c3ccc(N(C)C)cc3)=[O+][B-](F)(F)O2)cc1 | 640
CN(C)c1ccc(/C=C/C2=CC(/C=C/c3ccc(N(C)C)c4ccccc34)=[O+][B-](F)(F)O2)c2ccccc12 | 620
CN(C)c1ccc(/C=C/C2=CC(=C/C=C3C=CC(=[N+](C)C)C=C3)/O[B-](F)(F)O2)cc1 | 605
CCN(CC)c1ccc(/C=C/C2=CC(/C=C/c3ccc(N(CC)CC)nc3)=[O+][B-](F)(F)O2)cn1 | 570
F[B-]1(F)OC(/C=C/c2c(-c3ccccc3)[nH]c3ccccc23)=CC(/C=C/c2c(-c3ccccc3)[nH]c3ccccc23)=[O+]1 | 587

Exercise: Need Excitation λ, item F[B-]1(F)OC(/C=C/c2cc3c4c(c2)CCCN4CCC3)=CC(/C=C/c2cc3c4c(c2)CCCN4CCC3)=[O+]1
Solution: 640
